# Tested on: CD2F1 mice, L1210 leukemia ip, survival T/C
# Assay name: NCI In Vivo Anticancer Drug Screen. Data for tumor model L1210 Leukemia (intraperitoneal) in CD2F1 (CDF1) mice
# Recorded conditions: endpoint: mean survival time; dose: 400.0 mg/kg/injection; schedule: Q04DX002 (ip); vehicle: saline with Tween-80; higher = longer survival
Inconclusive results and toxic doses are left out.
Measurement label: T/C

O=c1ccc(OS(=O)(=O)c2ccccc2)n[nH]1 : 104 % of control

Briefly, T/C measured for `CCc1ccc(C(=O)CCC(=O)O)cc1` : 102 % of control

Briefly, T/C measured for `COc1cc(Cl)ccc1NC(=O)Nc1ccccc1C` : 90 % of control

Briefly, T/C measured for `CCCCCCCCCCCCNC(=O)Nc1cccc(OC)c1` : 87 % of control

Briefly, T/C measured for `C/C(=C\C(=O)Nc1ccc(S(=O)(=O)F)cc1)c1ccc([N+](=O)[O-])cc1` : 98 % of control

Briefly, T/C measured for `COc1cc(CCCCl)cc(OC)c1OC` : 103 % of control

Briefly, T/C measured for CC(=O)OCC1OC(Oc2c([N+](=O)[O-])cc([N+](=O)[O-])c3ccccc23)C(OC(C)=O)C(OC(C)=O)C1OC(C)=O (configuration not stated) : 104 % of control

Briefly, T/C measured for `CC1(CCC2(C)OCCO2)OCCO1` : 93 % of control

Briefly, T/C measured for `CNC(=S)/N=c1/scc(C)n1C` : 111 % of control

Briefly, T/C measured for `O=C(COc1ccccc1)NC(=S)Nc1ccc([N+](=O)[O-])cc1Cl` : 91 % of control

Briefly, T/C measured for `CCCCOP(=O)(OCCCC)Oc1cccc2ccccc12` : 106 % of control

Briefly, T/C measured for `COC(=O)Nc1ccc(Cl)cc1[N+](=O)[O-]` : 91 % of control

* * *

Recorded T/C for the following compounds
# System: CD2F1 mice, L1210 leukemia ip, survival T/C
# Assay name: NCI In Vivo Anticancer Drug Screen. Data for tumor model L1210 Leukemia (intraperitoneal) in CD2F1 (CDF1) mice
# Recorded conditions: endpoint: mean survival time; dose: 200.0 mg/kg/injection; schedule: Q04DX003 (ip); vehicle: saline with Tween-80; higher = longer survival
Toxic doses and inconclusive results are not listed.

Worked set:
CCCCCCCCC(C(O)c1ccccc1)C(O)(C(F)(F)F)C(F)(F)F (configuration not stated) : 102 % of control
COC1(OC)CCC(OC)(OC)C(OC)(OC)C1(OC)OC : 94 % of control
Cc1cc(NC(=O)SCCOC(=O)COc2ccc(Cl)cc2)ccc1Cl : 91 % of control
O=C(O)CCCSc1nc2ccccc2s1 : 98 % of control
S=c1[nH]nc2n1NC(c1ccoc1)=NN2 : 107 % of control
CCCCCCCCCCCCCCCCCCNC(=O)Nc1ccc(C)c(C)c1 : 89 % of control

Shift focus to the following entry.
Briefly, T/C measured for O=C(CC(NC(=O)OCc1ccccc1)c1nn[nH]n1)OCc1ccccc1 (configuration not stated) : 94 % of control

* * *

# System: CD2F1 mice, L1210 leukemia ip, survival T/C
# Assay name: NCI In Vivo Anticancer Drug Screen. Data for tumor model L1210 Leukemia (intraperitoneal) in CD2F1 (CDF1) mice
# Recorded conditions: endpoint: mean survival time; dose: 400.0 mg/kg/injection; schedule: Q01DX001 (ip); vehicle: saline with Tween-80; higher = longer survival
Inconclusive results and toxic doses are left out.
Measurement label: T/C

CCOC(=O)c1ccc(NC(=O)Nc2ccc(N(C)C(C)=O)cc2)cc1 : 102 % of control

Briefly, T/C measured for O=C(NC1CCCC2CCCCC21)c1ccccc1 (stereo not given) : 90 % of control

Briefly, T/C measured for `Clc1ccc(Sc2ccc(Cl)cc2)cc1` : 91 % of control

Briefly, T/C measured for `CC1(C)COC(c2ccc(-c3ccc(C4=NC(C)(C)CO4)cc3)cc2)=N1` : 100 % of control

Briefly, T/C measured for `CCOC(=O)C(CC)(C(=O)OCC)c1c(Cl)c(=O)oc2ccc(Cl)cc12` : 91 % of control
